Assay: APR_HepG2_MitoMembPot_24hr: Apredica 24-hour HepG2 Assay for Mitochondrial Membrane Potential (AID 2282911)
Conditions: imaging, actives raise or lower the signal
Calls of active or inactive are those of the source. Rule for the calls: active = hit-call score of the fitted dose curve at least 0.9, where 1 is the maximum; inactive = score below 0.9.
Just give me one of these, please: t for active, f for inactive

Please share the test call associated with CCCCCCOCCO .
f

Next:
Please share the test call associated with CCNc1cccc(C)c1 .
f

Please share the test call associated with CCCCc1ccc2c(n1)[C@@H](c1ccc(OC)cc1C[C@H](C)C(=O)O)[C@H](C(=O)O)[C@H]2c1ccc2c(c1)OCO2 .
f

Please share the test call associated with NS(=O)(=O)c1cc2c(cc1Cl)NCNS2(=O)=O .
f

Please share the test call associated with Nc1ccccc1N .
f

Please share the test call associated with Cc1cccc(Nc2cc(Cl)nc(SCC(=O)O)n2)c1C .
f

---

Read-out: MicroRNA 122 (MIR122), gene 406906
Assay: LTEA_HepaRG_MIR122: Life Technologies and Expression Analysis (LTEA) Assay for MicroRNA 122 (MIR122) using HepaRG (AID 2283516); note: the transcript read is the microRNA miR-122
Conditions: mRNA level, 48 h; actives raise or lower the signal
Method: LTEA_HepaRG is a cell based, multiplexed-readout assay that uses HepaRG, a human liver cell line, with measurements taken at 48 hours after chemical dosing on a 96-well plate.LTEA_HepaRG_MIR122 is one of 102 assay component(s) measured in the LTEA HepaRG cell culture assay. It is a marker of MicroRNA.Data from the assay component LTEA_HepaRG_MIR122 was analyzed into 1 endpoint. […]
The source made the active and inactive calls. Rule for the calls: active = hit-call score of the fitted dose curve at least 0.9, where 1 is the maximum; inactive = score below 0.9.
Just give me one of these, please: t (active), f (inactive)

Please share the test call associated with CCCCN(CCCC)CCCC .
f

Next:
Please share the test call associated with CC1=C(/C=C/C(C)=C/C=C/C(C)=C/CO)C(C)(C)CCC1 .
f

Please share the test call associated with Nc1ccc2c(c1)C(=O)c1ccccc1C2=O .
t

Please share the test call associated with CNC(=O)[C@H]1O[C@@H](n2cnc3c(NCc4cc(Cl)ccc4OCc4cc(C)no4)ncnc32)[C@H](O)[C@@H]1N .
f

Please share the test call associated with Cc1cc(=O)[nH]c(=S)[nH]1 .
f

Please share the test call associated with FC(F)(F)C(F)(F)C(F)(F)C(F)(F)C(F)(F)C(F)(F)CCI .
f

Please share the test call associated with Cc1c(C(=O)O)c(O)cc2c1C(=O)c1c(O)c([C@@H]3O[C@H](CO)[C@@H](O)[C@H](O)[C@H]3O)c(O)c(O)c1C2=O .
f

Please share the test call associated with CCOc1ccc2c(c1)C(C)=CC(C)(C)N2 .
f

---

Read-out: Tissue Factor, F3 (gene 2152)
Test: BSK_CASM3C_TissueFactor: BioMAP Diversity Plus: CASM3C Assay for Tissue Factor Biomarker Activity (AID 2283052);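 note: cell surface tissue factor protein level read by ELISA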
Details: primary human coronary artery smooth muscle cells; actives raise or lower the signal
Activity calls are given as the source filed them. The calls were made as follows: active = hit-call score of the fitted dose curve at least 0.9, where 1 is the maximum; inactive = score below 0.9.
Just give me one of these, please: true (1) (active), false (0) (inactive)

Here's what some known entries look like.
Please share the test call associated with CCCCCCCC=O .
false (0)

Please share the test call associated with COc1cc(-c2nc(NC(=O)c3cc4cc(C)cc(C)c4n3CC(=O)O)sc2CCC2CCCCC2)c(OC)cc1Cl .
false (0)

Please share the test call associated with COc1ccc2c(c1)c(CC(=O)O)c(C)n2C(=O)c1ccc(Cl)cc1 .
false (0)

Please share the test call associated with Cc1ccccc1Cl .
false (0)

Please share the test call associated with C[Si]1(C)O[Si](C)(C)O[Si](C)(C)O[Si](C)(C)O1 .
false (0)

Please share the test call associated with CCCCC(CC)COC(=O)CC(C(=O)OCC(CC)CCCC)S(=O)(=O)O (centres undefined) .
false (0)

Please share the test call associated with CCCCOC(=O)CCCCCCCCC(=O)OCCCC .
false (0)

Please share the test call associated with O=c1[nH]cc(F)c(=O)[nH]1 .
false (0)

Next:
Please share the test call associated with Cc1c(C(=O)O)c(O)cc2c1C(=O)c1c(O)c([C@@H]3O[C@H](CO)[C@@H](O)[C@H](O)[C@H]3O)c(O)c(O)c1C2=O .
false (0)

Please share the test call associated with Cc1ccc2ncccc2c1 .
false (0)

Please share the test call associated with O=C(O)Cc1ccccc1Nc1c(Cl)cccc1Cl .
false (0)

Please share the test call associated with Nc1nc(N)c2nc(CNc3ccc(C(=O)N[C@@H](CCC(=O)O)C(=O)O)cc3)cnc2n1 .
false (0)

Where do these numbers come from? They come from PubChem BioAssay (EPA / NIEHS).
